Source of measurements: patent US20040176361A1

# measurementTarget: Recombinant human PARP (Homo sapiens, UniProt P09874)
# Sequence (P09874 whole entry): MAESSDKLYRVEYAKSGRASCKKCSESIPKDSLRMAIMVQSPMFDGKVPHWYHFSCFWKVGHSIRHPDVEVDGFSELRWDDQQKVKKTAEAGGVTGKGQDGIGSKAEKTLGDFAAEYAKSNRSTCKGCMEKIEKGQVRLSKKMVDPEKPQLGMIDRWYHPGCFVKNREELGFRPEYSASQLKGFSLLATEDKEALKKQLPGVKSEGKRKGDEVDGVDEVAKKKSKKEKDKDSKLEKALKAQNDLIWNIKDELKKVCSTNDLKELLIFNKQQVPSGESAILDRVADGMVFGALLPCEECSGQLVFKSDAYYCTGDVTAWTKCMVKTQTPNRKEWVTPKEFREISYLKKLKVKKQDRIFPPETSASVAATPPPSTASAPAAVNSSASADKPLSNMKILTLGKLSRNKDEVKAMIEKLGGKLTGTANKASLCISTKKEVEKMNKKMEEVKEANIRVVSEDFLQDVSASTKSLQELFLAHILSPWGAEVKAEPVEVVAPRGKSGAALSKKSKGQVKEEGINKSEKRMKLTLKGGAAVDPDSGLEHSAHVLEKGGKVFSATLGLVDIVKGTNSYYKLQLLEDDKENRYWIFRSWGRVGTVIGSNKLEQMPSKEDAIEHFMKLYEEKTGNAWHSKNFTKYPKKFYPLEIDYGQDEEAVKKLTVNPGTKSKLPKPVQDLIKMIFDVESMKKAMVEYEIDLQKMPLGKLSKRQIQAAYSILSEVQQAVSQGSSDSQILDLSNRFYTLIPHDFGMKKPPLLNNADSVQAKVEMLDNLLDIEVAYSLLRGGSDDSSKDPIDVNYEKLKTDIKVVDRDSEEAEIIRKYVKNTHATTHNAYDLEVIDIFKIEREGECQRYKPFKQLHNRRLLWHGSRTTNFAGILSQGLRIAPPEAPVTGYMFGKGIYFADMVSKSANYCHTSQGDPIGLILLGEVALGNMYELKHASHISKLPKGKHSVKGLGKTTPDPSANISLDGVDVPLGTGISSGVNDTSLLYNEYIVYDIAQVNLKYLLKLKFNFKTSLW
# measurementDescription: PARP enzyme activity inhibitory action
# testContext: PARP inhibitory activity IC50 (nM), 3H-NAD, activated DNA, 25° C. 15 min; average of 3 measurements
Structures can show the parent of a compound that is named as a salt.
Labelling: IC50 reported below 30 nM becomes condition met; at or above becomes condition not met.

compound="CN(C)CCCc1cc2c(O)cccc2c(=O)[nH]1 [Example 186, hydrochloride]" measurementtarget="Recombinant human PARP (Homo sapiens, UniProt P09874)" categorylabel="condition met"
compound="CN1CCC(c2cc3c(N)cccc3c(=O)[nH]2)CC1 [Example 181]" measurementtarget="Recombinant human PARP (Homo sapiens, UniProt P09874)" categorylabel="condition met"
compound="Cc1cccc2c(=O)[nH]c(C3CCN(C)CC3)cc12 [Example 178]" measurementtarget="Recombinant human PARP (Homo sapiens, UniProt P09874)" categorylabel="condition met"
compound="CN1CCC(C2Cc3c(O)cccc3C(=O)N2)CC1 (stereo not shown) [Example 184]" measurementtarget="Recombinant human PARP (Homo sapiens, UniProt P09874)" categorylabel="condition met"
compound="O=c1[nH]c(CCCN2CCCC2)cc2ccccc12 [Example 213]" measurementtarget="Recombinant human PARP (Homo sapiens, UniProt P09874)" categorylabel="condition not met"
compound="CN(C)CCCCc1cc2c(O)cccc2c(=O)[nH]1.Cl [Example 188, hydrochloride]" measurementtarget="Recombinant human PARP (Homo sapiens, UniProt P09874)" categorylabel="condition not met"
compound="CN1CCN(c2cc3c(Cl)cccc3c(=O)[nH]2)CC1 [Example 21]" measurementtarget="Recombinant human PARP (Homo sapiens, UniProt P09874)" categorylabel="condition not met"
compound="CN(C)C1CCN(c2cc3ccccc3c(=O)[nH]2)CC1 [Example 3]" measurementtarget="Recombinant human PARP (Homo sapiens, UniProt P09874)" categorylabel="condition not met"
compound="Cc1cccc2c(=O)[nH]c(CCCN3CCCC3)nc12 [Example 176]" measurementtarget="Recombinant human PARP (Homo sapiens, UniProt P09874)" categorylabel="condition not met"
compound="Cc1cccc2c(=O)[nH]c(CCN3CCCCC3)nc12 [Example 165]" measurementtarget="Recombinant human PARP (Homo sapiens, UniProt P09874)" categorylabel="condition not met"

* * *

In this section we review reported melting point values for a set of compounds.
measurementLabel: melting point

compound="CCOC(=O)N1CCN(c2cc3ccccc3c(=O)[nH]2)CC1 [Example 9]" valuemeasured="191 to 192 °C (dec.)"
compound=Br.O=c1[nH]c(C2CCNCC2)c(-c2ccccc2)c2ccccc12 valuemeasured="> 270 °C"
compound="CN(C)C1CCN(c2cc3c(Cl)cccc3c(=O)[nH]2)CC1 [Example 29]" valuemeasured="210 to 211 °C (dec.)"

* * *

# measurementDescription: Stability test in 0.1 mol/L aqueous citric acid solution (HPLC residual ratio)
# Assay type: physicochemical
# testContext: 5 mg in 1 ml 0.1 mol/L aqueous citric acid, room temperature, under shading, 8 days
# Description: Each test compound (5 mg) was dissolved in 0.1 mol/L aqueous citric acid solution (1 ml), and the residual ratio of each compound was measured by HPLC under shading or no shading at room temperature one day and 8 days later. The residual ratio was calculated by comparing the area of HPLC immediately after dissolution of each compound with the area of HPLC one day or 8 days later. column CAPCELPAK UG120 (C18)(Shiseido Co., Ltd.) mobile phase 50 mmol/L aqueous sodium perchlorate solution (pH […]
measurementLabel: residual ratio (%) under shading 8 days later

compound="CN1CCC(c2cc3c(O)cccc3c(=O)[nH]2)CC1 [Example 108]" valuemeasured=≈100%
compound="CN1CCC(c2cc3ccccc3c(=O)[nH]2)CC1 [Example 82]" valuemeasured=≈100%
compound="CN1CCN(c2cc3ccccc3c(=O)[nH]2)CC1 [Example Y-3011, reference compound]" valuemeasured=32%
compound="Cc1cccc2c(=O)[nH]c(C3CCN(C)CC3)nc12 [Example 121]" valuemeasured=≈100%

* * *

# measurementTarget: Recombinant human PARP (Homo sapiens, UniProt P09874)
# measurementDescription: PARP enzyme activity inhibitory action
# testContext: PARP inhibitory activity IC50 (nM), 3H-NAD, activated DNA, 25° C. 15 min; average of 3 measurements
Labelling: IC50 reported below 40 nM becomes true; at or above becomes false.

molecule="Cc1cccc2c(=O)[nH]c([C@@H]3CCN4CCCC4C3)cc12 (single isomer, unassigned) [Example 226]" measurementtarget="Recombinant human PARP (Homo sapiens, UniProt P09874)" categorylabel=true
molecule="O=c1[nH]c(N2CCN(CCO)CC2)cc2ccccc12 [Example Y-3079, reference compound]" measurementtarget="Recombinant human PARP (Homo sapiens, UniProt P09874)" categorylabel=false
molecule="Cc1cccc2c(=O)[nH]c(C3CCN(C)C3)cc12 (stereo not drawn)" measurementtarget="Recombinant human PARP (Homo sapiens, UniProt P09874)" categorylabel=false
molecule=O=c1[nH]c(CCCN2CCCC2)cc2c(O)cccc12 measurementtarget="Recombinant human PARP (Homo sapiens, UniProt P09874)" categorylabel=true
molecule="Cc1cccc2c(=O)[nH]c(N3CCN(C)CC3)nc12 [Pfizer, reference compound]" measurementtarget="Recombinant human PARP (Homo sapiens, UniProt P09874)" categorylabel=false
molecule=CN1CCN(c2cc3ccccc3c(=O)[nH]2)C[C@H]1CO measurementtarget="Recombinant human PARP (Homo sapiens, UniProt P09874)" categorylabel=true
molecule="Cc1cccc2c(=O)[nH]c(N3CCN(C)C(CO)C3)cc12 (stereo not drawn)" measurementtarget="Recombinant human PARP (Homo sapiens, UniProt P09874)" categorylabel=true
molecule="CN1CCN(c2cc3ccccc3c(=O)[nH]2)CC1CO (stereo not drawn)" measurementtarget="Recombinant human PARP (Homo sapiens, UniProt P09874)" categorylabel=false
molecule=Cc1cccc2c(=O)[nH]c(N3CCN(C)CC3)cc12 measurementtarget="Recombinant human PARP (Homo sapiens, UniProt P09874)" categorylabel=true
molecule=O=c1[nH]c(CCN2CCCC2)cc2ccccc12 measurementtarget="Recombinant human PARP (Homo sapiens, UniProt P09874)" categorylabel=false
molecule=Cc1cccc2c(=O)[nH]c(N3CCC(N(C)C)CC3)cc12 measurementtarget="Recombinant human PARP (Homo sapiens, UniProt P09874)" categorylabel=true
molecule=Cc1cccc2c(=O)[nH]c(C3CCN(C)CC3)nc12 measurementtarget="Recombinant human PARP (Homo sapiens, UniProt P09874)" categorylabel=true
molecule=Cc1cccc2c(=O)[nH]c(CCN3CCCC3)cc12 measurementtarget="Recombinant human PARP (Homo sapiens, UniProt P09874)" categorylabel=false
molecule=Cc1cccc2c(=O)[nH]c(N3CCN(C)[C@H](CO)C3)cc12 measurementtarget="Recombinant human PARP (Homo sapiens, UniProt P09874)" categorylabel=true
molecule=CN(C)C1CCN(c2cc3c(Cl)cccc3c(=O)[nH]2)CC1 measurementtarget="Recombinant human PARP (Homo sapiens, UniProt P09874)" categorylabel=false
molecule=Cc1cccc2c(=O)[nH]c(CCCN3CCCCC3)cc12 measurementtarget="Recombinant human PARP (Homo sapiens, UniProt P09874)" categorylabel=false
molecule="Cc1cccc2c(=O)[nH]c([C@@H]3CCN4CCCC4C3)cc12 (single isomer, unassigned) [Example 225]" measurementtarget="Recombinant human PARP (Homo sapiens, UniProt P09874)" categorylabel=true
molecule="CN1CCN(c2cc3c(F)cccc3c(=O)[nH]2)CC1CO (stereo not drawn)" measurementtarget="Recombinant human PARP (Homo sapiens, UniProt P09874)" categorylabel=false
molecule=CN(C)CCCc1cc2ccccc2c(=O)[nH]1 measurementtarget="Recombinant human PARP (Homo sapiens, UniProt P09874)" categorylabel=false
molecule=CN1CCN(c2cc3c(Br)cccc3c(=O)[nH]2)CC1 measurementtarget="Recombinant human PARP (Homo sapiens, UniProt P09874)" categorylabel=false
molecule=O=c1[nH]c(CCN2CCCCC2)cc2c(O)cccc12 measurementtarget="Recombinant human PARP (Homo sapiens, UniProt P09874)" categorylabel=true
molecule=CN(C)C1CCN(c2cc3c(F)cccc3c(=O)[nH]2)CC1 measurementtarget="Recombinant human PARP (Homo sapiens, UniProt P09874)" categorylabel=false
molecule=COc1cccc2c(=O)[nH]c(C3CCN(C)CC3)cc12 measurementtarget="Recombinant human PARP (Homo sapiens, UniProt P09874)" categorylabel=false
molecule="O=c1[nH]c(C2CN3CCC2CC3)cc2ccccc12 (stereo not drawn)" measurementtarget="Recombinant human PARP (Homo sapiens, UniProt P09874)" categorylabel=false
molecule="O=c1[nH]c(N2CCCCC2)cc2ccccc12 [Example Y-3010, reference compound]" measurementtarget="Recombinant human PARP (Homo sapiens, UniProt P09874)" categorylabel=false
molecule=Cc1cccc2c(=O)[nH]c(CCCN(C)C)cc12 measurementtarget="Recombinant human PARP (Homo sapiens, UniProt P09874)" categorylabel=true
molecule=Cc1cccc2c(=O)[nH]c(CCN3CCCCC3)cc12 measurementtarget="Recombinant human PARP (Homo sapiens, UniProt P09874)" categorylabel=true
molecule="CN1CCN(c2cc3c(Cl)cccc3c(=O)[nH]2)CC1CO (stereo not drawn)" measurementtarget="Recombinant human PARP (Homo sapiens, UniProt P09874)" categorylabel=false
molecule="CN1CCN(c2cc3ccccc3c(=O)[nH]2)CC1 [Example Y-3011, reference compound]" measurementtarget="Recombinant human PARP (Homo sapiens, UniProt P09874)" categorylabel=false
molecule=O=c1[nH]c(CCN2CCCCC2)cc2ccccc12 measurementtarget="Recombinant human PARP (Homo sapiens, UniProt P09874)" categorylabel=false
molecule=CN1CCC(c2cc3ccc(Cl)cc3c(=O)[nH]2)CC1 measurementtarget="Recombinant human PARP (Homo sapiens, UniProt P09874)" categorylabel=false
molecule=CN1CCC(c2[nH]c(=O)c3ccccc3c2-c2ccccc2)CC1 measurementtarget="Recombinant human PARP (Homo sapiens, UniProt P09874)" categorylabel=false
molecule=CN1CCN(c2cc3c(F)cccc3c(=O)[nH]2)CC1 measurementtarget="Recombinant human PARP (Homo sapiens, UniProt P09874)" categorylabel=false
molecule=CN1CCN(c2cc3c(O)cccc3c(=O)[nH]2)CC1 measurementtarget="Recombinant human PARP (Homo sapiens, UniProt P09874)" categorylabel=true
molecule=Cc1cccc2c(=O)[nH]c(CCCN3CCCC3)cc12 measurementtarget="Recombinant human PARP (Homo sapiens, UniProt P09874)" categorylabel=true
molecule=COc1cccc2c(=O)[nH]c(N3CCN(C)CC3)cc12 measurementtarget="Recombinant human PARP (Homo sapiens, UniProt P09874)" categorylabel=false
molecule=CN1CCC(c2cc3ccccc3c(=O)[nH]2)CC1 measurementtarget="Recombinant human PARP (Homo sapiens, UniProt P09874)" categorylabel=true
